# ASSAY REMARKS: P. aeruginosa biofilm formation inhibitors, primary screen, PAO1 strain, BacTiter-Glo luminescence, LB-PBS (AID 1144)
# TEST SETTINGS: 12 h, higher = more signal
Recorded z-score values for a group of compounds are listed next.

{"columns": ["SMILES NOTATION", "z-score"],
 "data": [
  ["COC(=O)[C@@]1(Cc2ccccc2CN=[N+]=[N-])N=C(c2ccc(OCCCO)cc2)O[C@H]1c1ccccc1", -1.09],
  ["CCOC(=O)C[C@H]1[C@H](OC(=O)c2ccc(C(=O)c3ccccc3)cc2)[C@@H](NC(=O)CC(C)C)c2cc(OCCCO)ccc2N1C(=O)Cc1ccc(OC)cc1", -0.356],
  ["Cc1ccc(F)cc1S(=O)(=O)N[C@@H]1CCN(Cc2cccc3[nH]ccc23)C1", -0.0885],
  ["COC(=O)C(CC#Cc1ccc2c(c1)[C@]1(C(=O)N2)[C@H](c2ccc(OCCO)cc2)N2[C@H](c3ccccc3)[C@H](c3ccccc3)OC(=O)[C@H]2[C@@H]1C(=O)N1CCN(c2ncccn2)CC1)C(=O)OC", -0.961]
]}
